Task for the reader: assign each of the following compounds its reported Photostability (%).
Assay: Photostability; also: test concentration or dose not given here
Type: physicochemical
Details: Table 13B
Give bare numbers, in %.

Some compounds with recorded Photostability (%):
• CC1(C)CCN(c2ccc(N3C=C(C(=O)CCC(F)(F)F)C(C)(C)CC3)cc2)C=C1C(=O)CCC(F)(F)F = 54
• CCCCC(CC)COC(=O)c1cc(/C=C/C(=O)C2=CN(C(C)(C)C)CCC2(C)C)ccc1/C=C/C(=O)C1=CN(C(C)(C)C)CCC1(C)C (stereo not drawn) = 2
• CC1(C)CCN(C(C)(C)C)C=C1C(=O)c1ccc(F)cc1 = 75
• CCOC(=O)C(=O)C1=CN(C(C)(C)C)CCC1(C)C = 50
• CC1(C)CCN(C(C)(C)C)C=C1C(=O)/C=C/c1cccc(/C=C/C(=O)C2=CN(C(C)(C)C)CCC2(C)C)c1 = 95
• CC1(C)CCN(C(C)(C)C)C=C1C(=O)c1ccccc1 = 76
• CCOC(=O)C(=O)C1=CN(c2ccccc2)CCC1(C)C = 68
• Cc1cc(C)c(C(=O)C2=CN(C(C)(C)C)CCC2(C)C)c(C)c1 = 33

Could I get Photostability (%) for every one of these entries?
1. CC1(C)CCN(C(C)(C)C)C=C1C(=O)c1ccc(C(F)(F)F)cc1
2. CCCCC(CC)CN(c1ccc(C(=O)C2=CN(C(C)(C)C)CCC2(C)C)cc1)c1ccc(C(=O)C2=CN(C(C)(C)C)CCC2(C)C)cc1.Cl (stereo not drawn)
3. CC1(C)CCN(C(C)(C)C)C=C1C(=O)c1c(F)c(F)c(F)c(F)c1F
4. CCCCC(CC)COC(=O)CCC(=O)C1=CN(c2ccc(N3C=C(C(=O)CCC(=O)OCC(CC)CCCC)C(C)(C)CC3)cc2)CCC1(C)C (stereo not drawn)
5. Cc1ccc(NC(=O)C2=CN(C(C)(C)CC(C)(C)C)CCC2(C)C)cc1NC(=O)C1=CN(C(C)(C)CC(C)(C)C)CCC1(C)C
6. CC1(C)CCN(C(C)(C)C)C=C1C(=O)/C=C/c1ccc(C(=O)C2=CN(C(C)(C)C)CCC2(C)C)cc1
7. CC1(C)CCN(C(C)(C)C)C=C1C(=O)c1ccccn1
8. CC(C)CN1C=C(C(=O)C(C)(C)C)C(C)(C)CC1

Return:
76
39
100
52
55
77
22
60

Could I get Photostability (%) for every one of these entries?
1. CN1C=C(C(=O)c2ccc(N(C)CCCCCCN(C)c3ccc(C(=O)C4=CN(C(C)(C)C)CCC4(C)C)cc3)cc2)C(C)(C)CC1
2. CC1(C)CCN(C(C)(C)C)C=C1C(=O)c1c(F)cccc1F

Return:
22
85
